- run-description: solvent given as SMILES
- condition-details: in OCC(O)CO
parameter-measured: emission maximum (nm)

item_smiles=c1csc(-c2cnc(-c3cccs3)c3nonc23)c1 observed_value=633
item_smiles=C[n+]1ccc(/C=C/c2ccc(N(c3ccccc3)c3ccc(/C=C/c4cc[n+](C)cc4)cc3)cc2)cc1 observed_value=649
item_smiles=C[n+]1ccnc(/C=C/c2ccc(N(c3ccccc3)c3ccc(/C=C/c4c[n+](C)ccn4)cc3)cc2)c1 observed_value=690
item_smiles=O=C1NC(=O)/C(=C\c2ccccc2O)S1 observed_value=451
item_smiles=CCN1C(=CC=Cc2n(CC)c3cc(Cl)c(Cl)cc3[n+]2CC)N(CC)c2cc(Cl)c(Cl)cc21 observed_value=535

---

- run-description: solvent given as SMILES
- condition-details: in C1CCOC1
parameter-measured: emission maximum (nm)

item_smiles=CC[n+]1ccc(/C=C/c2cc(OC)c(C=O)cc2OC)cc1 parameter_measured="emission maximum" unit_annotation=nm observed_value=557
item_smiles=O=Cc1cc(O)c(C=O)cc1O parameter_measured="emission maximum" unit_annotation=nm observed_value=468
item_smiles=CCOC(=O)/C(C#N)=C\c1cn(-c2ccccc2)nc1-c1ccccc1 parameter_measured="emission maximum" unit_annotation=nm observed_value=429
item_smiles=CCCCCCCCN1c2ccc(C#Cc3cc(C(F)(F)F)cc(C(F)(F)F)c3)cc2Sc2cc(C=O)ccc21 parameter_measured="emission maximum" unit_annotation=nm observed_value=514
item_smiles=CC(C)(C)c1cc2ccc3cc(C(C)(C)C)cc4c(N(c5ccccc5)c5ccccc5)cc(c1)c2c34 parameter_measured="emission maximum" unit_annotation=nm observed_value=455.01
item_smiles=COc1ccc(/C=C/C(F)(F)F)c(N)c1 parameter_measured="emission maximum" unit_annotation=nm observed_value=410
item_smiles=Cc1ccc(-c2cc3ccccc3oc2=O)cc1 parameter_measured="emission maximum" unit_annotation=nm observed_value=410
item_smiles=CCCCOc1ccc(-c2oc3c(-c4ccc(OCCCC)cc4)c4n(c3c2-c2ccc(OCCCC)cc2)[B-](F)(F)[N+]2=Cc3c(-c5ccc(OCCCC)cc5)c5oc(-c6ccc(OCCCC)cc6)c(-c6ccc(OCCCC)cc6)c5n3[B-](F)(F)[N+]2=C4)cc1 parameter_measured="emission maximum" unit_annotation=nm observed_value=663
item_smiles=COC(=O)c1ccc(NC(=O)c2ccc(N(C)C)cc2)cc1 parameter_measured="emission maximum" unit_annotation=nm observed_value=470
item_smiles=CC[NH+](CC)c1ccc(-c2nc3c(nc2-c2ccc(B(c4c(C)cc(C)cc4C)c4c(C)cc(C)cc4C)cc2)c2ccccc2n3C)cc1 parameter_measured="emission maximum" unit_annotation=nm observed_value=428.33

---

- run-description: solvent given as SMILES
- condition-details: in ClC(Cl)Cl
parameter-measured: emission maximum (nm)

item_smiles=COc1cc(OC)c2c(c1)c1cc3oc(=O)cc(C)c3cc1c1cc(OC)cc(OC)c12 observed_value=538
item_smiles=O=c1oc2ccccc2cc1-c1nc2ccccc2o1 observed_value=443
item_smiles=O=Cc1ccc(C#CC(C#Cc2ccc(C=O)s2)=Cc2ccc(C=C(C#Cc3ccc(C=O)s3)C#Cc3ccc(C=O)s3)s2)s1 observed_value=595
item_smiles=F[B-]1(F)n2c(ccc2-c2cccs2)C(c2ccc(Br)cc2)=C2C=CC(c3cccs3)=[N+]21 observed_value=643
item_smiles=CCN(CC)c1ccc2cc(/C=C/C3=C4CC/C(=C\c5cc6ccc(N(CC)CC)cc6oc5=O)C4=[O+][B-](F)(F)O3)c(=O)oc2c1 observed_value=706

(a) Cc1c2c(nc3ccccc13)-c1cc3c(cc1CC2)-c1nc2ccccc2c(C)c1CC3
(b) CCCCCCCCCCOc1cc(OCCCCCCCCCC)cc(C2=C3C(/C=C/c4ccc(OC)cc4)=C(C#Cc4ccc(C(C)(C)C)cc4)C(/C=C/c4ccc(OC)cc4)=[N+]3[B-](F)(F)n3c(/C=C/c4ccc(OC)cc4)c(C#Cc4ccc(C(C)(C)C)cc4)c(/C=C/c4ccc(OC)cc4)c32)c1
INPUT: Lab note: record which item had the higher emission maximum, a or b . In your reply, give the label of the chosen option.
OUTPUT: b
(b: 756 nm, a: 383 nm)

---

- run-description: solvent given as SMILES
- condition-details: in CCOCC
parameter-measured: emission maximum (nm)
Number in nm, nothing else.

INPUT: Suppose we examine the compound COc1ccc(/C=C/C2=[O+][B-](F)(F)OC(/C=C/c3ccc(OC)cc3)=C2c2ccccc2)cc1 ; what emission maximum value has been reported?
OUTPUT: 520

INPUT: Suppose we examine the compound CN(C)c1ccc(/C=C/c2nc3c4ccccc4c4ccccc4c3[nH]2)cc1 ; what emission maximum value has been reported?
OUTPUT: 448

---

- run-description: solvent given as SMILES
- condition-details: in CO
parameter-measured: emission maximum (nm)

(A) Fc1ccc(-c2cc3ccc4cc(-c5ccc(F)cc5)cc5ccc(c2)c3c45)cc1
(B) CCCN1/C(=C/C=C(/C=C/c2sc3ccccc3[n+]2CCC)c2ccc([N+](=O)[O-])cc2)Sc2ccccc21
INPUT: Lab note: record which item had the higher emission maximum, A or B . In your reply, give the label of the chosen option.
OUTPUT: B

(A) CCCCCCOc1ccc2oc3c(c2c1)=CC1=C(c2ccccc2C)c2cc4c5cc(OCCCCCC)ccc5oc4n2[B-](F)(F)[N+]=31
(B) COc1ccc(-c2nc(-c3cccc(OC)c3)[nH]c2-c2ccc(OC)cc2)cc1
INPUT: # query: argmin of emission maximum over A and B In your reply, give the label of the chosen option.
OUTPUT: B
(B: 399 nm, A: 603 nm)

---

- run-description: solvent given as SMILES
- condition-details: in CO
parameter-measured: emission maximum (nm)

compound=COc1c2ccccc2c(OC)c2c1c1cccc(OC)c1n2C parameter_measured="emission maximum" observed_value=429
compound=CC1=CC(C)=[N+]2C1=C(c1ccc(N3CCOCC3)cc1)c1c(C)cc(C)n1[B-]2(F)F parameter_measured="emission maximum" observed_value=514
compound=CCN(CC)c1ccc2c(c1)OC1=C(/C=C/C3=[N+](C)c4ccc5ccccc5c4C3(C)C)CCCC1=C2c1ccccc1C(=O)O parameter_measured="emission maximum" observed_value=753

(P) N#CSC1=CC2=C(c3ccccc3)c3ccc(N4CCOCC4)n3[B-](F)(F)[N+]2=C1N1CCOCC1
(Q) COC(=O)C([NH3+])Cc1ccc2oc(-c3ccncc3)nc2c1 (stereo not given)
INPUT: Lab note: record which item had the higher emission maximum, P or Q . In your reply, give the label of the chosen option.
OUTPUT: P
(P: 599 nm, Q: 379.88 nm)

---

- run-description: solvent given as SMILES
- condition-details: in ClCCl
parameter-measured: emission maximum (nm)

The examples below pair each entry with its known result.
item_smiles=COc1cc(-c2ncc(-c3ccncc3)o2)cc(OC)c1OC unit_annotation=nm observed_value=417
item_smiles=CCN(CC)c1ccc(-c2nc3c(c4c2-c2ccc(C#N)cc2CC4)-c2ccc(C#N)cc2CC3)cc1 unit_annotation=nm observed_value=493
item_smiles=CCCCCc1ccc(C#Cc2cc(C#Cc3ccc(CCCCC)cc3)c3ccc4c(C(=O)c5ccccc5)cc(C#Cc5ccc(CCCCC)cc5)c5ccc2c3c54)cc1 unit_annotation=nm observed_value=511
item_smiles=CCn1c2cc(-c3cccs3)ccc2c2ccc(-c3cccs3)cc21 unit_annotation=nm observed_value=391
item_smiles=Cc1nc(-c2ccccc2O)n2c1CCCC2 unit_annotation=nm observed_value=452
item_smiles=CCCCc1ccc2c(c1)c1ccc3cccc4c3c1c1c2c2cccc3ccc5c6cc(CCCC)ccc6c4c1c5c32 unit_annotation=nm observed_value=506

(1) CC(C)(C)c1ccc(C#Cc2c(C#Cc3ccc(C(C)(C)C)cc3)c3cccc4c(C#Cc5ccc(C(C)(C)C)cc5)c(C#Cc5ccc(C(C)(C)C)cc5)c5cccc2c5c34)cc1
(2) COc1cc(OC)cc(C2=C3C(C)=C(I)C(/C=C/c4ccsc4)=[N+]3[B-](F)(F)n3c(/C=C/c4ccsc4)c(I)c(C)c32)c1
INPUT: Lab note: record which item had the higher emission maximum, 1 or 2 . In your reply, give the label of the chosen option.
OUTPUT: 2
(2: 682 nm, 1: 443 nm)

---

- run-description: solvent given as SMILES
- condition-details: in c1ccncc1
parameter-measured: emission maximum (nm)
Number in nm, nothing else.

The examples below pair each entry with its known result.
compound="CC1CC=C(c2ccc(-c3ccc(C#N)s3)s2)CC1 (stereo unspecified)" observed_value=452
compound=c1csc(-c2cnc(-c3cccs3)c3nonc23)c1 observed_value=617

INPUT: Suppose we examine the compound OC1(c2ccc(-c3cccs3)s2)CCCCC1 ; what emission maximum value has been reported?
OUTPUT: 475

INPUT: Suppose we examine the compound CN(C)c1ccc(/C=C2\CC/C(=C\c3ccc(C#N)cc3)C2=O)cc1 ; what emission maximum value has been reported?
OUTPUT: 673

INPUT: Suppose we examine the compound CCCCCCCCOc1ccc2c3cccc4c(OCCCCCCCC)ccc(c5cccc1c52)c43 ; what emission maximum value has been reported?
OUTPUT: 474.01

INPUT: Suppose we examine the compound OC1(c2ccc(-c3cccs3)s2)CCC(c2ccccc2)CC1 (stereo unspecified) ; what emission maximum value has been reported?
OUTPUT: 385

Value source: the Deep4Chem optical property database
